Test system: genotype 1b NS3/4a protease inhibitor resistant variant D168A transient HCV replicon in Huh-7-derived cells
method.summary: Transient-transfected HCV replicon EC50, genotype 1b D168A
Format: cell-based, hepatitis C virus
conditions: Hepatitis C virus, 72 h, read-out: EC50 1B D168A, transient-transfected replicon genotype 1b D168A resistant variant, 72 h
With a cut-off of 100 nM, any EC50 strictly below it is called 1; any EC50 meeting it or above is called -1.

compound.structure.string	category.label
CC[C@@H]1[C@@H]2CN(C(=O)[C@H](C(C)(C)C)NC(=O)O[C@@H]3C[C@H]3CCCCCc3nc4ccc(OC)cc4nc3O2)[C@@H]1C(=O)N[C@]1(C(=O)NS(=O)(=O)C2(C)CC2)C[C@H]1C(F)F	1
CC[C@@H]1[C@@H]2CN(C(=O)[C@H](C(C)(C)C)NC(=O)O[C@@H]3C[C@H]3CC/C=C/C(F)(F)c3nc4ccc(C#N)cc4nc3O2)[C@@H]1C(=O)N[C@]1(C(=O)NS(=O)(=O)C2(C)CC2)C[C@H]1C(F)F	1
CC[C@@H]1[C@@H]2CN(C(=O)[C@H](C(C)(C)C)NC(=O)O[C@@H]3C[C@H]3CCCCCc3nc4ccc(OC)cc4nc3O2)[C@@H]1C(=O)N[C@]1(C(=O)NS(=O)(=O)C2(C)CC2)C[C@H]1C	1
CC[C@@H]1[C@@H]2CN(C(=O)[C@H](C(C)(C)C)NC(=O)O[C@@H]3[C@H]4CC[C@H](C4)[C@H]3CCCCCc3nc4ccc(OC)cc4nc3O2)[C@@H]1C(=O)N[C@]1(C(=O)NS(=O)(=O)C2(C)CC2)C[C@H]1C(F)F	-1
CC[C@@H]1[C@@H]2CN(C(=O)[C@H](C(C)(C)C)NC(=O)O[C@]3(C)CCC[C@H]3CCCCCc3nc4ccc(OC)cc4nc3O2)[C@@H]1C(=O)N[C@]1(C(=O)NS(=O)(=O)C2CC2)C[C@H]1C(F)F	-1
C[C@@H]1[C@@H]2CN(C(=O)[C@H](C(C)(C)C)NC(=O)O[C@@H]3C[C@@H]4C[C@@H]4[C@H]3CCCCCc3nc4ccc(Cl)cc4nc3O2)[C@@H]1C(=O)N[C@]1(C(=O)NS(=O)(=O)C2CC2)C[C@H]1C(F)F	1
COc1ccc2nc3c(nc2c1)O[C@H]1CN(C(=O)[C@H](C2(C)CCCC2)NC(=O)O[C@@H]2C[C@H]2CCCCC3)[C@H](C(=O)N[C@]2(C(=O)NS(=O)(=O)C3(C)CC3)C[C@H]2C(F)F)[C@@H]1C	1
CC[C@@H]1[C@@H]2CN(C(=O)[C@H](C(C)(C)C)NC(=O)O[C@]3(C)CCC[C@H]3CCCCCc3nc4ccc(OC)cc4nc3O2)[C@@H]1C(=O)N[C@]1(C(=O)NS(=O)(=O)C2(C)CC2)C[C@H]1CCF	-1
COc1ccc2nc3c(nc2c1)O[C@H]1CN(C(=O)[C@H](C(C)(C)C)NC(=O)O[C@]2(C)C[C@H]2CCCCC3)[C@H](C(=O)N[C@]2(C(=O)NS(=O)(=O)C3(C)CC3)C[C@H]2C(F)F)[C@@H]1C	1

###

Tested on: genotype 1b NS3/4a protease inhibitor resistant variant D168A transient HCV replicon in Huh-7-derived cells
method.summary: Transient-transfected HCV replicon EC50, genotype 1b D168A
Type: cell-based, hepatitis C virus
conditions: Hepatitis C virus, 72 h, read-out: EC50 1B D168A, transient-transfected replicon genotype 1b D168A resistant variant, 72 h
With a cut-off of 9 nM, any EC50 strictly below it is called yes; any EC50 meeting it or above is called no.

compound.structure.string	category.label
CC[C@@H]1[C@@H]2CN(C(=O)[C@H](C(C)(C)C)NC(=O)O[C@@H]3C[C@@H]4C[C@@H]4[C@H]3CCCCC(F)(F)c3nc4ccc(OC)cc4nc3O2)[C@@H]1C(=O)N[C@]1(C(=O)NS(=O)(=O)C2CC2)C[C@H]1C(F)F	yes
CCOc1ccc2nc3c(nc2c1)O[C@H]1CN(C(=O)[C@H](C(C)(C)C)NC(=O)O[C@@H]2C[C@H]2CCCCC3)[C@H](C(=O)N[C@]2(C(=O)NS(=O)(=O)C3(C)CC3)C[C@H]2C(F)F)[C@@H]1CC	no
CC[C@@H]1[C@@H]2CN(C(=O)[C@H](C(C)(C)C)NC(=O)O[C@@H]3CCC[C@H]3CCCCCc3nc4ccc(OC)cc4nc3O2)[C@@H]1C(=O)N[C@]1(C(=O)NS(=O)(=O)C2CC2)C[C@H]1C(F)F	no
COc1ccc2nc3c(nc2c1)O[C@H]1CN(C(=O)[C@H](C(C)(C)C)NC(=O)O[C@@H]2C[C@H]2CCCCC3)[C@H](C(=O)N[C@]2(C(=O)NS(=O)(=O)C3(C)CC3)C[C@H]2C(F)F)[C@@H]1CC(C)C	no
C=C[C@@H]1C[C@]1(NC(=O)[C@@H]1[C@H](C)[C@@H]2CN1C(=O)[C@H](C(C)(C)C)NC(=O)O[C@@H]1C[C@H]1CCCCCc1nc3ccc(OC)cc3nc1O2)C(=O)NS(=O)(=O)C1CC1	yes
CC[C@@H]1[C@@H]2CN(C(=O)[C@H](C(C)(C)C)NC(=O)O[C@@H]3[C@H]4CC[C@H](C4)[C@H]3CCCCCc3nc4ccc(OC)cc4nc3O2)[C@@H]1C(=O)N[C@]1(C(=O)NS(=O)(=O)C2CC2)C[C@H]1C(F)F	no
COc1ccc2nc3c(nc2c1)O[C@H]1CN(C(=O)[C@H](C(C)(C)C)NC(=O)O[C@@H]2C[C@@H]4C[C@@H]4[C@H]2CCCCC3(F)F)[C@H](C(=O)N[C@]2(C(=O)NS(=O)(=O)C3(C)CC3)C[C@H]2C(F)F)[C@@H]1C	yes
